This collection of values is drawn from paper PMC5109486.

# target under test: hMAO-B (Homo sapiens, UniProt P27338)
# Construct: purchased Sigma-Aldrich; host or cells: insect cells (BTI-TN-5B1-4) infected with recombinant baculovirus; microsomal preparation
# Sequence (P27338 1-520): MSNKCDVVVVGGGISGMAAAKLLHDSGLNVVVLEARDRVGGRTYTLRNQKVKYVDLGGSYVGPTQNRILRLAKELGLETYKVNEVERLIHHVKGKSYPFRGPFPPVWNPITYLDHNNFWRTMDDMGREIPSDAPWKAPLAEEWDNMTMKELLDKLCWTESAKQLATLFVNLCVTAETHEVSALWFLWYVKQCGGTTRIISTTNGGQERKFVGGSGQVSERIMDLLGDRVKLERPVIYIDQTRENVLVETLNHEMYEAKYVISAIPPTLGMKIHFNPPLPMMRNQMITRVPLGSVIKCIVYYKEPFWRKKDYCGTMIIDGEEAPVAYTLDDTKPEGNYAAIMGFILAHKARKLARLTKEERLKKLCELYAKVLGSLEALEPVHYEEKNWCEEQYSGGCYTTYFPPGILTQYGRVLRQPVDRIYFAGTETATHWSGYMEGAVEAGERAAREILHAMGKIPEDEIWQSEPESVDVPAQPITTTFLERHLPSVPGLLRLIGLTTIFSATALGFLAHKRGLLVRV
# experimental protocol: hMAO-B enzymatic inhibition, Amplex Red MAO assay (H2O2 from p-tyramine)
# Format: biochemical
# run conditions: Table 2; mean ± S.E.M., n = 3; rational assays selected by the modeling; read-out: IC50 hMAO-B
pIC50: −log10 of the molar value.
result type: pIC50

>>> test_result("COc1cc(/C=C/C(=O)N2CCC=CC2=O)cc(OC)c1OC")
4.19
